- Assay Comment: small-molecule microarray binders of probe aDKK1, primary screen, biochemical, biotinylated probe, 635/667 nm fluorescence (AID 1099);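 note: score merges 667nm spot fluorescence with signal to noise across triplicate slides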
- Test Context: higher = more signal
Property Measured: composite z-score
Reply with just the number.

Solved cases (6 shown):
# Compound, composite z-score
records = [
    ("COc1cc(COC(C)=O)ccc1OC(C)=O", 1.85),
    ("CC1(C)[C@@H]2CC(C(O)C3C=CC4C(=O)N(c5ccccc5)C(=O)C4N3Nc3ccc([N+](=O)[O-])cc3)=C[C@H]1C2 (some centres undefined)", 0.217),
    ("CC(C)CNC(=O)[C@@]1(Cc2ccccc2I)c2ccccc2C(=O)N(C2CCCCC2)[C@H]1c1ccc(CO)cc1", 0.778),
    ("COCCOC(=O)N1C(=O)[C@@]2(c3cc(C#Cc4ccc(OC)cc4)ccc31)[C@H](c1ccccc1OCCO)N1[C@H](c3ccccc3)[C@H](c3ccccc3)OC(=O)[C@H]1[C@@H]2C(=O)NC[C@H](O)c1ccccc1", 0.201),
    ("CN(C)CCCCCCNC(=O)[C@@H]1C[C@@H]2C(=O)N[C@@H](Cc3ccccc3)C(=O)N2[C@@H]1c1ccc(O)cc1", 0.026),
    ("O[C@@H](Cc1ccccc1)[C@H]1C2C=CCCC=C2CN1Cc1cccc(Cl)c1 (some centres undefined)", -0.0422),
]

Provide only the value of recorded composite z-score for C=CCNC(=O)[C@@H]1[C@H]2C(=O)O[C@H](c3ccccc3)[C@H](c3ccccc3)N2[C@H](c2ccccc2OCCO)[C@@]12C(=O)N(C(=O)OCCOC)c1ccccc12
-0.0073

// fetch composite z-score given entry CN(C)CCCCCCNC(=O)[C@H]1C[C@H]2C(=O)N[C@@H](CCCCN)C(=O)N2[C@H]1c1cccc(OCCO)c1
3.01

Recall and state the measured composite z-score for C=CCOC(=O)[C@@H]1[C@H]2C(=O)O[C@H](c3ccccc3)[C@H](c3ccccc3)N2[C@H](c2ccc(OCCOC(=O)[C@H]3C[C@H]4C(=O)N5CCC[C@H]5C(=O)N4[C@H]3c3ccc(O)cc3)cc2)[C@@]12C(=O)Nc1ccc(I)cc12 .
0.158

---

Catalogue of z-score readings, one per entry.
- Assay Comment: cell viability in Huh7 cells, primary screen, cytotoxicity control for HCV replication inhibitor project, CellTiter-Glo luminescence, basal, 48 h (AID 1143);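 note: Huh7 hepatoma cells carrying a hepatitis C replication reporter with no stimulus; test concentration not given here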
- Test Context: Huh7 HCV replicon, higher = more signal, called active from +8 up or from −8 down
Activity calls are given as the source filed them.

Please review the entries below; each comes with its answer.
# Compound, Endpoint Result
data = [
    ("NC(=O)[C@@H]1[C@H]2C(=O)O[C@H](c3ccccc3)[C@H](c3ccccc3)N2[C@H](c2ccc(O)cc2)[C@@]12C(=O)Nc1ccccc12", "-4.14 (inactive)"),
    ("CCCC[C@H]1OB(O)C[C@H]2C1=C(COC)Cn1c(=O)n(-c3ccccc3)c(=O)n12", "0.0344 (inactive)"),
    ("COC(=O)[C@@]1(Cc2ccc(OC)cc2)[C@H]2c3cc(C(=O)N(C)C)n(Cc4ccccn4)c3C[C@H]2CN1C(=O)c1ccccc1", "-1.17 (inactive)"),
    ("COC(=O)[C@@]1(CCS(=O)(=O)c2ccccc2)N=C(c2ccc(OCCCO)cc2)O[C@H]1c1ccccc1CN=[N+]=[N-]", "-2.7 (inactive)"),
]

Tell me measured z-score for CCOC(=O)C[C@H]1[C@H](OC(=O)c2ccc(C(=O)c3ccccc3)cc2)[C@@H](NC(=O)c2ccc3ccccc3c2)c2cc(OCCCO)ccc2N1C(=O)Cc1ccc(OC)cc1 please.
-0.132 (inactive)

In one line, give reported z-score of the entry O=C1[C@@]23C=C(Br)[C@H](C[C@@H]2CCOC3)[C@@]12CO2 .
0.35 (inactive)

Fill in reported z-score for this entry: COC(=O)[C@@]1(Cc2ccccc2)[C@H]2c3cc(C(=O)N(C)C)n(Cc4ccsc4Br)c3C[C@H]2CN1C(=O)c1ccccc1
-3.35 (inactive)

Report z-score, nothing else, for this compound: COC(=O)[C@]1(CCC(=O)OC(C)(C)C)N=C(c2ccc(OCCCO)cc2)O[C@@H]1c1ccccc1CN=[N+]=[N-]
-4.56 (inactive)

Item O=C(NC1CC1)[C@@H]1c2ccccc2C(=O)N(Cc2ccccc2Cl)[C@H]1c1ccc(CO)cc1 : provide z-score
-2.67 (inactive)

Dear colleague, please send me the reported z-score for O=C(NCCO)C1=C[C@H](Oc2ccccc2I)[C@@H](O)[C@H](N(Cc2ccco2)C(=O)Cc2ccccc2)C1 when you can.
0.0266 (inactive)

Indicate its recorded z-score; the compound in question is C=C[C@H](OC)[C@@H](OC(=O)Nc1ccc(OC)cc1)c1ccc(O)c(F)c1
-3.6 (inactive)

Return reported z-score. Input compound: CC(C)C[C@@H]1NC(=O)[C@@H]2C[C@H](C(=O)O)[C@H](c3cccc(OCCO)c3)N2C1=O
-1.07 (inactive)

---

The reader will find reported z-score values listed item by item below.
- Assay Comment: splicing luciferase reporter signal modulators, primary screen, spliceosome inhibition project, cell-based, HEK293, splice +/- reporter (AID 1101);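 note: HEK293 cells carrying a splicing-competent luciferase reporter gene; test concentration not given here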
- Test Context: luminescence, 24 h, higher = more signal, called active from +8 up or from −8 down
Write the number on its own, no unit after it.

Example results:
# Molecule, z-score
data = [
    ("CC(C)C[C@@H]1NC(=O)[C@H](C(C)C)NC(=O)[C@@]23C(=O)N[C@@H](Cc4ccccc4)C2[C@H](C)[C@@]2(C)O[C@H]2C3/C=C/CC/C=C/CNC1=O (stereo partly drawn)", -0.76),
    ("C=CCC(OC(C)=O)[C@@H]1[C@@H](N(Cc2ccc(-c3ccccc3)cc2)C(=O)c2ccc(-c3ccccc3)cc2)c2cc(OCCCO)ccc2N1C(=O)Cc1ccc2ccccc2c1 (stereo partly drawn)", -0.412),
]

Determine from records and report z-score for COCCOC(=O)N1C(=O)[C@@]2(c3ccccc31)[C@H](c1ccc(O)cc1)N1[C@H](c3ccccc3)[C@H](c3ccccc3)OC(=O)[C@H]1[C@@H]2C(=O)Nc1nc2ccccc2s1
-1.3

---

- System: Fibrinogen (Alexa647-labelled)
- Assay Comment: fibrinogen binders on compound microarrays, profiling panel, artefact control for SMM control-protein annotation, biochemical, small-molecule microarray, 635/667 nm fluorescence (AID 1131);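 note: z-score merges 667 nm fluorescence with per-spot signal-to-noise over triplicate slides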
- Test Context: fibrinogen-A647 binding fluorescence, higher = more signal
Property Measured: composite z-score
Please respond with just the number, no unit label.

For orientation, consider the following solved cases.
# Compound, composite z-score
data = [
    ("C=CCNC(=O)[C@@H]1[C@H]2C(=O)O[C@H](c3ccccc3)[C@H](c3ccccc3)N2[C@H](c2ccc(O)cc2)[C@@]12C(=O)N(C(=O)OCCOC)c1ccc(C#CCNC(N)=O)cc12", 0.746),
    ("COCCOC(=O)N1C(=O)[C@@]2(c3cc(C#CCC(C(=O)OC)C(=O)OC)ccc31)[C@H](C(=O)Nc1nc3ccccc3s1)[C@H]1C(=O)O[C@H](c3ccccc3)[C@H](c3ccccc3)N1[C@@H]2c1ccccc1OCCO", 0.965),
    ("O=C(c1ccccc1)N1C(=O)[C@@]2(Cc3ccccc31)N=C(c1ccc(OCCCO)cc1)O[C@H]2c1ccccc1", 0.657),
]

Query composite z-score for C=C[C@H](OC)[C@@H](OC(=O)Nc1ccc(OC)cc1)c1ccc(O)c(F)c1
-1.5

Could you please provide reported composite z-score for O=C1O[C@H](c2ccccc2)[C@H](c2ccccc2)N2[C@H]1[C@@H](C(=O)N1CCCCCCC1)[C@]1(C(=O)Nc3ccc(C#CC4=CCCCC4)cc31)[C@H]2c1ccc(OCCO)cc1 ? Thanks!
0.9

Report composite z-score for O=C1C2C=CC(C(O)c3cc(C(F)(F)F)cc(C(F)(F)F)c3)N(n3cnnc3)C2C(=O)N1Cc1ccccc1 (stereo unspecified)
0.889

---

- Target Entity: Albumin (Bos taurus) (UniProt P02769)
- Sequence (P02769 whole entry, looked up): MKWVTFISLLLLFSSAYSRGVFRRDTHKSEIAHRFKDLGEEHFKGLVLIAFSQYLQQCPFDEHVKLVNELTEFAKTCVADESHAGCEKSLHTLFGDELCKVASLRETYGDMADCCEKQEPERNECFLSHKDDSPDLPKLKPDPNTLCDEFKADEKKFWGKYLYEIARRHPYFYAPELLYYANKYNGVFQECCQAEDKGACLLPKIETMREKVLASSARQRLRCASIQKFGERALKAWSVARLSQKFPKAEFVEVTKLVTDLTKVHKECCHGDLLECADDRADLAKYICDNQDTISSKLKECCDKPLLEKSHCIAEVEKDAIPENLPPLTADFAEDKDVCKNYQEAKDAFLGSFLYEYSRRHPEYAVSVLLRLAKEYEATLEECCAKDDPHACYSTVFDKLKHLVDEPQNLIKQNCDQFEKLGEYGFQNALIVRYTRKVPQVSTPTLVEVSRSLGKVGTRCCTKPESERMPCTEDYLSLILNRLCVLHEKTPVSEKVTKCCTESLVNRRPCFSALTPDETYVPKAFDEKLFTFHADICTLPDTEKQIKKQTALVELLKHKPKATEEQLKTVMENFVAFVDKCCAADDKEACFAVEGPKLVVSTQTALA
- Assay Comment: bovine serum albumin binders on microarray, profiling panel, artefact control for SMM control protein annotation, biochemical, small-molecule microarray, Alexa647 label, 635/667 nm fluorescence (AID 1118);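 note: score merges 667 nm emission intensity and signal-to-noise per printed compound spot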
- Test Context: BSA-A647 binding, fluorescence 635 nm, higher = more signal
Property Measured: composite z-score
Give your answer as a number; write no unit.

# Molecule, Property Measured, Endpoint Result
records = [
    ("O=C1C[C@@](C(=O)NCCN2CCOCC2)(c2ccc([N+](=O)[O-])cc2)[C@@H](c2ccc(CO)cc2)N1CC12CC3CC(CC(C3)C1)C2", "composite z-score", 0.0577),
    ("O=C(c1ccccc1)N1C(=O)[C@]2(COC(c3ccc(OCCCO)cc3)=N2)Cc2ccccc21", "composite z-score", 0.368),
    ("O=C1[C@@]23C=C(Br)[C@H](C[C@@H]2CCOC3)[C@@]12CO2", "composite z-score", -0.169),
    ("O=C1C2C=CC(C(O)CCc3ccccc3)N(Nc3ccccc3F)C2C(=O)N1c1ccccc1 (configuration not stated)", "composite z-score", 0.955),
    ("C[C@@]1([C@@H](NC(=O)c2ccc(-c3ccccc3)cc2)c2ccc(Cl)cc2)C[C@H]1C1CCCCC1", "composite z-score", 0.688),
    ("COCCOC(=O)N1C(=O)[C@@]2(c3cc(C#CCCO)ccc31)[C@H](C(=O)N1CCCCCCC1)[C@H]1C(=O)O[C@H](c3ccccc3)[C@H](c3ccccc3)N1[C@@H]2c1ccc(OCCO)cc1", "composite z-score", 0.796),
]

Moving on to the next molecule.
Look up and report measured composite z-score for this entry: O=C1N[C@@H](Cc2ccccc2)C(=O)N2[C@@H]1C[C@@H](C(=O)O)[C@H]2c1cccc(OCCO)c1
0.0429
